target_of_assay: CD28 (Homo sapiens, UniProt P10747)
assay_details: Flow binding to Jurkat/IL2 reporter cells (CD28)
Parameters: host or cells: Jurkat cells expressing an IL-2-luciferase reporter
stated_conditions: Table E10; 33.3 nM; relative to CD80 WT IgV-Fc
Protocol: Binding of selected immunomodulatory fusion proteins to cognate binding partners was assessed. […] Cells were sorted in a Bio-Rad S3 Cell Sorter (Bio-Rad Corp., USA) to >98% purity. […] For staining and analysis by flow cytometry, 100,000 cells of appropriate transfected cells were plated in 96-well round bottom plates. […] Cells were then washed twice with 150 μL/well stain buffer, fixed in 2% formaldehyde/PBS, and analyzed on Intellicyt flow cytometer (Intellicyt Corp., USA). […]
Here, each record is paired with measured CD28 Fold change to WT CD80 data.

molecule	CD28 Fold change to WT CD80
E35D/D46E/L85M (protein) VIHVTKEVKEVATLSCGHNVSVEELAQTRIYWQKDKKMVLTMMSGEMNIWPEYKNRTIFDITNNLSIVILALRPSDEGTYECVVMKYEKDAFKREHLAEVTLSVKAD	2.5
E35D/D46E (protein) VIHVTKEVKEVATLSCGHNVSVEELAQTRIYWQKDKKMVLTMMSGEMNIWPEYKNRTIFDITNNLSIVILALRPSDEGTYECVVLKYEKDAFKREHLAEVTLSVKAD	11.8
E35D/D46E/A91G (protein) VIHVTKEVKEVATLSCGHNVSVEELAQTRIYWQKDKKMVLTMMSGEMNIWPEYKNRTIFDITNNLSIVILALRPSDEGTYECVVLKYEKDGFKREHLAEVTLSVKAD	52.3
D46V/M47I/A71G (protein) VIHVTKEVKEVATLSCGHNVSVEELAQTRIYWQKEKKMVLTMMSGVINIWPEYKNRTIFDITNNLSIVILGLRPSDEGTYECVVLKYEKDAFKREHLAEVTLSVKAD	20.1
Q27L/E35D/M47V/I61V/L85M (protein) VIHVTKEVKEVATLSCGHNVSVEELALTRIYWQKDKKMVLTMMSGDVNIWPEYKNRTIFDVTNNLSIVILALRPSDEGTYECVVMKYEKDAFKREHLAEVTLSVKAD	3.5
M47I/A71G (protein) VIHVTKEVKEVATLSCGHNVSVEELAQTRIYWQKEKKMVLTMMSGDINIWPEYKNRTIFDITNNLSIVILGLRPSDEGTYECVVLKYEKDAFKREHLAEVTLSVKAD	12.5
E35D/M47V (protein) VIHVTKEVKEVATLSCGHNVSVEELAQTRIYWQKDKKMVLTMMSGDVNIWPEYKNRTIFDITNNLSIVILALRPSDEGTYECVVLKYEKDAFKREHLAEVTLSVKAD	7.0

Provenance of the data: patent US20220177587A1
